target.of.assay: UniProtKB P33261
Sequence (P33261 whole entry): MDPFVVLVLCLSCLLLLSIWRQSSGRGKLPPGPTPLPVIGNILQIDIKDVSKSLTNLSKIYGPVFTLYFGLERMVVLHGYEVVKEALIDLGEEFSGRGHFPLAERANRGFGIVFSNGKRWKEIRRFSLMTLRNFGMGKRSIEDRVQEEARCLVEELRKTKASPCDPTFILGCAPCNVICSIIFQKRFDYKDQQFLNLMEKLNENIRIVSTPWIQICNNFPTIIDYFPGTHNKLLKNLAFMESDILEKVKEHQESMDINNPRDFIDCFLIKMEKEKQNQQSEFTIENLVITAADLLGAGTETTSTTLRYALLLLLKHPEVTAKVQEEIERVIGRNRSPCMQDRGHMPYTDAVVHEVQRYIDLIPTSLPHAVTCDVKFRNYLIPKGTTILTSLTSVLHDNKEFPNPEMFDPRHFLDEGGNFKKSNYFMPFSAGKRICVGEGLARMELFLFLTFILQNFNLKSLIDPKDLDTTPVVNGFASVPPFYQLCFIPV
experimental.protocol: CYP450 inhibition, fluorescent substrate, recombinant baculosomes
Assay type: in vitro ADME
conditions.used: read-out: CYP2C19 IC50
Measured IC50 values are reported for all entries that follow.
property.label: IC50

[[record]]
compound = "CC[C@H]1[C@@H](O)C2C3CC[C@H]([C@H](C)Cc4nc(=O)o[nH]4)[C@@]3(C)C[C@H](O)C2[C@@]2(C)CC[C@@H](O)C[C@@H]12 (stereo partly drawn)"
target_of_assay = "UniProtKB P33261"
result_value = "> 10 µM"

[[record]]
compound = "CC[C@H]1[C@@H](O)C2C3CC[C@H]([C@H](C)CCC(=O)O)[C@@]3(C)C[C@H](O)C2[C@@]2(C)CC[C@@H](O)C[C@@H]12 (stereo partly drawn) [Compound L1, reference compound]"
target_of_assay = "UniProtKB P33261"
result_value = "> 10 µM"

[[record]]
compound = "CC[C@H]1[C@@H](O)C2C3CC[C@H]([C@H](C)CCc4nc(=O)o[nH]4)[C@@]3(C)C[C@H](O)C2[C@@]2(C)CC[C@@H](O)C[C@@H]12 (stereo partly drawn)"
target_of_assay = "UniProtKB P33261"
result_value = "> 10 µM"


* * *

experimental.protocol: 1-octanol-water partition coefficient of ionized species
Assay type: physicochemical
Overview of reported LogPA−: 1-octanol-water partition coefficient as ionized species across a group of compounds:
property.label: LogPA−: 1-octanol-water partition coefficient as ionized species

[[record]]
compound = "CC[C@H]1[C@@H](O)C2C3CC[C@H]([C@H](C)CCCOS(=O)(=O)[O-])[C@@]3(C)C[C@H](O)C2[C@@]2(C)CC[C@@H](O)C[C@@H]12.[Na+] (stereo partly shown) [Compound 5]"
result_value = 0.61

[[record]]
compound = "CC[C@H]1[C@@H](O)C2C3CC[C@H]([C@H](C)CCC(=O)O)[C@@]3(C)C[C@H](O)C2[C@@]2(C)CC[C@@H](O)C[C@@H]12 (stereo partly shown) [Compound L1, reference compound]"
result_value = 0.84

[[record]]
compound = "CC[C@H]1[C@@H](O)C2C3CC[C@H]([C@H](C)CCc4nc(=O)o[nH]4)[C@@]3(C)C[C@H](O)C2[C@@]2(C)CC[C@@H](O)C[C@@H]12 (stereo partly shown) [Compound 7]"
result_value = 2.0

[[record]]
compound = "CC[C@H]1[C@@H](O)C2C3CC[C@H]([C@H](C)CCOS(=O)(=O)[O-])[C@@]3(C)C[C@H](O)C2[C@@]2(C)CC[C@@H](O)C[C@@H]12.[Na+] (stereo partly shown) [Compound 3]"
result_value = 0.12


* * *

experimental.protocol: Critical micellar concentration
Assay type: physicochemical
conditions.used: determined in […] NaCl water solution
property.label: CMC: Critical Micellar Concentration (mM)

[[record]]
compound = "CC[C@H]1[C@@H](O)C2C3C[C@H](O)[C@H]([C@H](C)CCC(=O)O)[C@@]3(C)CCC2[C@@]2(C)CC[C@@H](O)C[C@@H]12 (stereo partly drawn) [Compound E, reference compound]"
result_value = 5.9

[[record]]
compound = "CC[C@H]1[C@@H](O)C2C3CC[C@H]([C@H](C)Cc4nc(=O)o[nH]4)[C@@]3(C)C[C@H](O)C2[C@@]2(C)CC[C@@H](O)C[C@@H]12 (stereo partly drawn)"
result_value = 28

[[record]]
compound = "CC[C@H]1[C@@H](O)[C@@H]2[C@H](CC[C@]3(C)[C@@H]([C@H](C)CCC(=O)O)CC[C@@H]23)[C@@]2(C)CC[C@@H](O)C[C@@H]12 [Compound A, reference compound]"
result_value = 2.9

[[record]]
compound = "CC[C@H]1[C@@H](O)C2C3CC[C@H]([C@H](C)CCOS(=O)(=O)[O-])[C@@]3(C)C[C@H](O)C2[C@@]2(C)CC[C@@H](O)C[C@@H]12.[Na+] (stereo partly drawn)"
result_value = 12.5

[[record]]
compound = "CC[C@H]1[C@@H](O)C2C3CCC(C(C)CC(C)C(=O)O)[C@@]3(C)[C@@H](O)CC2[C@@]2(C)CC[C@@H](O)C[C@@H]12 (stereo in doubt) [Compound C, reference compound]"
result_value = 2

[[record]]
compound = "CC[C@H]1[C@@H](O)C2C3CC[C@H]([C@H](C)CCCOS(=O)(=O)[O-])[C@@]3(C)C[C@H](O)C2[C@@]2(C)CC[C@@H](O)C[C@@H]12.[Na+] (stereo partly drawn)"
result_value = 8.5


* * *

Quick list: EC50 per entry.
target.of.assay: mTGR5 (Mus musculus (Mouse), UniProt Q80SS6)
Sequence (Q80SS6 whole entry): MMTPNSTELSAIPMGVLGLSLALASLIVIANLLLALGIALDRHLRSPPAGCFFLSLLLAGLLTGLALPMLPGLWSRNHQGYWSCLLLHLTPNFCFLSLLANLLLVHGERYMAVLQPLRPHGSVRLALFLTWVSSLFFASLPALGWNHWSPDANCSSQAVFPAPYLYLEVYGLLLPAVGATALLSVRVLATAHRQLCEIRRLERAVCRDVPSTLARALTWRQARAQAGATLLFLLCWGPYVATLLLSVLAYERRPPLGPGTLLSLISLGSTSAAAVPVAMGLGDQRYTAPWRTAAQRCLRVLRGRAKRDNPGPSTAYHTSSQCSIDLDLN
experimental.protocol: Cross species TGR5 activity, CHO cells, mouse
Format: cell-based
property.label: EC50 (µM)

[[record]]
compound = "CC[C@H]1[C@@H](O)C2C3CC[C@H]([C@H](C)CCc4nc(=O)o[nH]4)[C@@]3(C)C[C@H](O)C2[C@@]2(C)CC[C@@H](O)C[C@@H]12 (stereo partly drawn) [Compound 7]"
result_value = 9.5

[[record]]
compound = "CC[C@H]1[C@@H](O)C2C3CC[C@H]([C@H](C)CCCOS(=O)(=O)[O-])[C@@]3(C)C[C@H](O)C2[C@@]2(C)CC[C@@H](O)C[C@@H]12.[Na+] (stereo partly drawn) [Compound 5, sodium salt]"
result_value = 4

[[record]]
compound = "CC[C@H]1[C@@H](O)C2C3CC[C@H]([C@H](C)CCOS(=O)(=O)[O-])[C@@]3(C)C[C@H](O)C2[C@@]2(C)CC[C@@H](O)C[C@@H]12.[Na+] (stereo partly drawn) [Compound 3, sodium salt]"
result_value = 3


* * *

experimental.protocol: In-vitro cytotoxicity, membrane integrity (LDH release)
Assay type: cell-based
conditions.used: human; HepG2; read-out: Membrane Integrity (LDH measure) LC50
From the text: To evaluate in-vitro cytotoxicity of a compound of the invention, two different assay methods are employed. The assays evaluate cell viability by measuring ATP levels and cytotoxicity by measuring LDH release. […]
property.label: CC50 (µM)

[[record]]
compound = "C[C@H](CCC(=O)O)[C@H]1CC[C@H]2[C@@H]3CC[C@@H]4C[C@H](O)CC[C@]4(C)[C@H]3CC[C@]12C [LCA, lithocholic acid, reference compound]"
property_label = "CC50"
result_value = 100


* * *

Property: pIC50; scope: individual compounds
target.of.assay: CYP2E1 (Homo sapiens (Human))
Sequence (P05181 whole entry): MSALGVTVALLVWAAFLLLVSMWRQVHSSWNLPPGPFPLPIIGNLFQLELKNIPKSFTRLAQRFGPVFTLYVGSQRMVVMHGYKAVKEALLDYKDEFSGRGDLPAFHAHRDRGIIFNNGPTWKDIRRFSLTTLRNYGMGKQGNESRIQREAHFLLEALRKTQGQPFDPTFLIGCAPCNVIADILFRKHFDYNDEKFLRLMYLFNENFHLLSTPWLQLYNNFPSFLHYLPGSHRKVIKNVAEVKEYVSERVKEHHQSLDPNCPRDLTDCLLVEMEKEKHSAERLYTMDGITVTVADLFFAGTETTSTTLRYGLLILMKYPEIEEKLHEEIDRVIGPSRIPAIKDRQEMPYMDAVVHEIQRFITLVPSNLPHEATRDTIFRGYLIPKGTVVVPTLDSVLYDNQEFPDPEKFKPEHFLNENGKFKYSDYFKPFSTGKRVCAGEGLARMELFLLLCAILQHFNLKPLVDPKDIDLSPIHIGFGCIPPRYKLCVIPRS
experimental.protocol: CYP450 inhibition, fluorescent substrate, recombinant baculosomes
Format: in vitro ADME
conditions.used: read-out: CYP2E1 IC50
pIC50: −log10 of the molar value.
property.label: pIC50

[[record]]
compound = "CC[C@H]1[C@@H](O)C2C3CC[C@H]([C@H](C)CCc4nc(=O)o[nH]4)[C@@]3(C)C[C@H](O)C2[C@@]2(C)CC[C@@H](O)C[C@@H]12 (stereo partly drawn)"
result_value = "< 5.00"

[[record]]
compound = "CC[C@H]1[C@@H](O)C2C3CC[C@H]([C@H](C)Cc4nc(=O)o[nH]4)[C@@]3(C)C[C@H](O)C2[C@@]2(C)CC[C@@H](O)C[C@@H]12 (stereo partly drawn)"
result_value = "< 5.00"

[[record]]
compound = "CC[C@H]1[C@@H](O)C2C3CC[C@H]([C@H](C)CCC(=O)O)[C@@]3(C)C[C@H](O)C2[C@@]2(C)CC[C@@H](O)C[C@@H]12 (stereo partly drawn) [Compound L1, reference compound]"
result_value = "< 5.00"


* * *

target.of.assay: CYP2D6 (Homo sapiens (Human), UniProt P10635)
Sequence (P10635 whole entry): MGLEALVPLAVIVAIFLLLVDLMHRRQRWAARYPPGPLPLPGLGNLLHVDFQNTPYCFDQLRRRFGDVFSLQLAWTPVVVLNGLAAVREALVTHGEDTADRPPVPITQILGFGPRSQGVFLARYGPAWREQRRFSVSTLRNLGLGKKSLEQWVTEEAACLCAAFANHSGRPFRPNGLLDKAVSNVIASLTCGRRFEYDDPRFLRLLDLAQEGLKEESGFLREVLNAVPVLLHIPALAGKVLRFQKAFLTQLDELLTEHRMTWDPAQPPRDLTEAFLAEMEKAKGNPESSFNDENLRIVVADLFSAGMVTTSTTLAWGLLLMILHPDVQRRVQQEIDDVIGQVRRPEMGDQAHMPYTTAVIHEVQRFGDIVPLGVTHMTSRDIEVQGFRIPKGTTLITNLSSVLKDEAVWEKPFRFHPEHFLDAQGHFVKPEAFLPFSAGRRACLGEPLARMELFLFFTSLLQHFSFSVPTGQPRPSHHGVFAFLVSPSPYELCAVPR
experimental.protocol: CYP450 inhibition, fluorescent substrate, recombinant baculosomes
Format: in vitro ADME
conditions.used: read-out: CYP2D6 IC50
pIC50: −log10 of the molar value.
property.label: pIC50

[[record]]
compound = "CC[C@H]1[C@@H](O)C2C3CC[C@H]([C@H](C)CCc4nc(=O)o[nH]4)[C@@]3(C)C[C@H](O)C2[C@@]2(C)CC[C@@H](O)C[C@@H]12 (stereo partly drawn) [Compound 7]"
target_of_assay = "CYP2D6 (Homo sapiens (Human), UniProt P10635)"
result_value = "< 5.00"

[[record]]
compound = "CC[C@H]1[C@@H](O)C2C3CC[C@H]([C@H](C)Cc4nc(=O)o[nH]4)[C@@]3(C)C[C@H](O)C2[C@@]2(C)CC[C@@H](O)C[C@@H]12 (stereo partly drawn) [Compound 6]"
target_of_assay = "CYP2D6 (Homo sapiens (Human), UniProt P10635)"
result_value = "< 5.00"

[[record]]
compound = "CC[C@H]1[C@@H](O)C2C3CC[C@H]([C@H](C)CCC(=O)O)[C@@]3(C)C[C@H](O)C2[C@@]2(C)CC[C@@H](O)C[C@@H]12 (stereo partly drawn) [Compound L1, reference compound]"
target_of_assay = "CYP2D6 (Homo sapiens (Human), UniProt P10635)"
result_value = "< 5.00"

